targetDesc: human IL-23R (Homo sapiens, UniProt Q5VWK5)
Construct: Nanoluc luciferase (Nluc); secretion signal encoded by the plasmid (not specified); expressed in transfected cells; crude membranes used in the assay
Sequence (Q5VWK5 22-629): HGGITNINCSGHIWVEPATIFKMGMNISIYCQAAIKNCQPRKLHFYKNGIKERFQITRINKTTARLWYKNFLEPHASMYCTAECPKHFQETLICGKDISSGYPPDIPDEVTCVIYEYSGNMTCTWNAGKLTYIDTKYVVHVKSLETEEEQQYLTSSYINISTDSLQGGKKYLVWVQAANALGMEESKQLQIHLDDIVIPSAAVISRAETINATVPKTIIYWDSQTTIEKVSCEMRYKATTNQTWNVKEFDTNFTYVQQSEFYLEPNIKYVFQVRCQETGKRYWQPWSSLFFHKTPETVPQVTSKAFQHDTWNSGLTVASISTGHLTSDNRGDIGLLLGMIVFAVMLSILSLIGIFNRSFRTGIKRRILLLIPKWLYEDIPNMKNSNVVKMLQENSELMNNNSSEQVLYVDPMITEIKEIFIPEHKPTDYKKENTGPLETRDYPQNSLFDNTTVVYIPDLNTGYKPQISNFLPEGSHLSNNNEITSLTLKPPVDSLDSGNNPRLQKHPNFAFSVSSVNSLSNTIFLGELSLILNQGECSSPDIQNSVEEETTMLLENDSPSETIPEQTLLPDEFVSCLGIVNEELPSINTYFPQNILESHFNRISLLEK
assaySummary: Binding assay: displacement of fluorophore (TAMRA)-labelled reference compound from human IL-23R (BRET, Nluc-IL23R fusion protein membranes)
appliedConditions: read-out: % displacement (hIL-23R binding)
*1 amine or outer side, *2 acyl side, *3 side chain or, on linkers, in order; H or OH if unused. Where a SMILES comes first, the peptide text is derived from it. Bridges are numbered along the chain shown (N, C = ends). [ ]: non-standard residue; d: D form. 2Nal = N[C@@H](Cc1ccc2ccccc2c1)C(=O)O; AEF = NCCOc1ccc(C[C@H](N)C(=O)O)cc1; X1 = O=C(Cc1ccc(CN[*:1])cc1)[*:2]; 3Pal = N[C@@H](Cc1cccnc1)C(=O)O; αMeL = CC(C)C[C@](C)(N)C(=O)O; Dab = NCC[C@H](N)C(=O)O

{"columns": ["molecule", "Emax / %"],
 "data": [
  ["CC(=O)N[C@H]1CCSC[C@@H](C(=O)N[C@@H](Cc2ccc(OCCN)cc2)C(=O)N[C@@H](Cc2c[nH]c3ccccc23)C(=O)N[C@@](C)(CCCCN)C(=O)N[C@@H](CCC(=O)O)C(=O)N[C@@H](CC(N)=O)C(=O)NCC(N)=O)NC(=O)[C@H](CCC(N)=O)NC(=O)[C@H](Cc2c[nH]c3ccccc23)NC(=O)[C@H]([C@@H](C)O)NC(=O)[C@H](CCC(N)=O)NC1=O [Compound C, reference compound]", 102],
  ["CNC(=O)CC[C@@H]1NC(=O)[C@H](Cc2c[nH]c3ccccc23)NC(=O)[C@@H]2CCC(=O)NCC[C@H](NC1=O)C(=O)N[C@@H](Cc1ccc(OCCN)cc1)C(=O)N[C@@H](Cc1ccc3ccccc3c1)C(=O)N[C@@](C)(CC(C)C)C(=O)N[C@H](C(=O)N[C@@H](CCN)C(=O)N[C@@H](Cc1cccnc1)C(=O)NC)CCC(=O)NCc1ccc(cc1)CC(=O)N[C@@H](CO)C(=O)N2 [Compound 29] ([X1]SEWE(NHMe)[Dab][AEF][2Nal][αMeL]E[Dab][3Pal]-NHMe; lactam 3-6, N-10)", 96],
  ["CNC(=O)[C@H](Cc1cccnc1)NC(=O)[C@H](CCN)NC(=O)[C@@H]1CCC(=O)NCc2ccc(cc2)CC(=O)N[C@@H](C)C(=O)N[C@H]2CCC(=O)NCC[C@H](NC(=O)[C@H](CCC(N)=O)NC(=O)[C@H](Cc3c[nH]c4ccccc34)NC2=O)C(=O)N[C@@H](Cc2cnc3ccccc3c2)C(=O)N[C@@H](Cc2ccc3ccccc3c2)C(=O)NC(C)(C)C(=O)N1", 102],
  ["CCCC[C@H](NC(=O)[C@@H]1CCC(=O)NCc2ccc(cc2)CC(=O)N[C@@H](CO)C(=O)N[C@H]2CCC(=O)NCC[C@H](NC(=O)[C@H](CCC(N)=O)NC(=O)[C@H](Cc3c[nH]c4ccccc34)NC2=O)C(=O)N[C@@H](Cc2ccc(OCCN)cc2)C(=O)N[C@@H](Cc2ccc3ccccc3c2)C(=O)N[C@@](C)(CC(C)C)C(=O)N1)C(=O)N[C@@H](Cc1cccnc1)C(=O)NC", 98]
]}
